target: TEAD4 (recombinant protein of the TR-FRET and SPR assays) (human); assay: SPR
Quantity: Kd (nM)
Report the figure in nM without appending any unit label.

I am curious: what Kd value has been reported for Ac-CVVFTNYSGDTASQVDEHFSRALNYNNKDSKESSSPMSNRNFPPSFWNSN-NH2 [Vg^288-337 (TONDU domain and Ω-loop of Vestigial)] ? 3.1
